Task for the reader: assign each of the following compounds its reported LD50.
Tested on: rats
Conditions: rat, in vivo, po
Value expressed in mg/kg; do not type the unit.

Could you share what LD50 was measured for [Cl-].[Li+] [LiCl, lithium chloride] , tested on rats?
526

Now the same for [Cl-].[Cl-].[Mg+2] [MgCl, magnesium chloride]
2800

Now the same for [Ba+2].[Cl-].[Cl-] [BaCl2, barium chloride]
78

Now the same for [Cl-].[Cl-].[Sr+2] [SrCl, strontium chloride]
2250

Now the same for [Cl-].[Na+] [NaCl, sodium chloride]
3000

Now the same for [Cl-].[Cs+] [CsCl, caesium chloride]
2600

Now the same for [Cl-].[Rb+] [RbCl, rubidium chloride]
4440

Now the same for [Ca+2].[Cl-].[Cl-] [CaCl2, calcium chloride]
1000
